Overview of recorded Activity for various compounds
assay_details: Substrate activity at ADH105 (unknown origin) assessed as specific enzyme activity using NADH as cofactor at 2.5 to 10 mM measured for 30 mins in presence of Tris HCL buffer by UV-Vis spectroscopy analysis
measurement_context: Homo sapiens, dose 2.5-10 mM
observation_type: Activity (nmol/min/mg)

INSERT INTO results (smiles, measured_value) VALUES
  ('CC(=O)c1ccc(F)cc1', 86.4),
  ('CC(=O)Cc1ccccc1', 274),
  ('O=C(c1ccccc1)c1ccccc1', 12.8),
  ('CC(=O)c1ccccn1', 70.4),
  ('COc1ccccc1C(C)=O', 13.4),
  ('CC(=O)c1ccccc1', 142),
  ('CC(=O)c1ccc(N)cc1', 21.3),
  ('O=C(c1ccccc1)C(F)(F)F', 19.1),
  ('COc1ccc2c(c1)CCCC2=O', 9),
  ('CC(=O)c1cc(C(F)(F)F)cc(C(F)(F)F)c1', 29.6),
  ('O=C(CCl)c1ccc(F)c(F)c1', 131),
  ('CC(=O)c1ccc(F)nc1', 182),
  ('O=C(CBr)c1ccccc1', 18.7),
  ('CC(=O)c1ccccc1Br', 6.37),
  ('CC(=O)c1ccccc1O', 23.1),
  ('COc1cc(C(C)=O)cc(OC)c1OC', 154),
  ('CC(=O)c1ccc(O)cc1', 39.5);

Origin of the recorded values: ChEMBL document CHEMBL5252631
